The values you see were collected from patent US20040186081A1.

- target_under_test: NAALADase (Homo sapiens, UniProt Q04609)
- Sequence (Q04609 whole entry): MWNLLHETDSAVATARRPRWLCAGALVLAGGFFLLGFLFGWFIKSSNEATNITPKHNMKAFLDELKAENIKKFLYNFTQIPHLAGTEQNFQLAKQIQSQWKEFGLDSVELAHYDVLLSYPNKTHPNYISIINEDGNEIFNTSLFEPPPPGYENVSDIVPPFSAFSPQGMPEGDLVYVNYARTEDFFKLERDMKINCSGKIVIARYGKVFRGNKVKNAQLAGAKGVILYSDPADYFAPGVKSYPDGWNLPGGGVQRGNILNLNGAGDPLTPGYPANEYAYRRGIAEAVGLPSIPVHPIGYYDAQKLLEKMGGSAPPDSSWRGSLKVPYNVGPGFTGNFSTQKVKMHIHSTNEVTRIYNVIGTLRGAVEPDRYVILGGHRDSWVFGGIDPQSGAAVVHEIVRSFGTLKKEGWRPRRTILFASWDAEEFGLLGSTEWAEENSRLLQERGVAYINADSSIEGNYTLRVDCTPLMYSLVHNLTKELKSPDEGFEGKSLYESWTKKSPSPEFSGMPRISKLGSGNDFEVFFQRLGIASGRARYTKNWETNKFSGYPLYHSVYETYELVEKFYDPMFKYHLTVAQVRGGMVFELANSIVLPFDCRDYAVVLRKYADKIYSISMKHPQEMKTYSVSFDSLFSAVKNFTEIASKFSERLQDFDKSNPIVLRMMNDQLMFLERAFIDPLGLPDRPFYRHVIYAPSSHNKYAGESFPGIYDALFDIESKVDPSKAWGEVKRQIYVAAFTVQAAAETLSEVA
- measurement_notes: In vitro inhibition of NAALADase activity
- Format: biochemical
- condition: read-out: IC50

compound	IC50 / nM
O=C(O)c1c(CCS)cccc1OCCc1ccccc1	266
CC(S)CCC(Cc1cccc(C(=O)O)c1)C(=O)O (stereo not shown)	30
O=C(CCCSCc1ccc(-c2cccc(C(=O)O)c2)c(C(=O)O)c1)NO	10800
O=C(O)C(CCCS)Sc1ccccc1 (stereo not shown)	297

* * *

- target_under_test: NAALADase (Homo sapiens, UniProt Q04609)
- measurement_notes: In vitro inhibition of NAALADase activity
- Type: biochemical
- condition: read-out: IC50
pIC50: −log10 of the molar value.

compound	pIC50
O=C(NO)c1ccc(OCc2ccccc2)c(C(=O)O)c1 [6-Benzyloxy-N-hydroxy-isophthalamic acid]	≤ 4.00
COC(=O)c1cccc(-c2cccc(OCCC(=O)NO)c2C(=O)OC)c1	≤ 4.00
COC(=O)c1cccc(-c2cccc(OCC(=O)NO)c2C(=O)OC)c1	≤ 4.00
